Source listed as patent US10301280B2.

Molecular target: c-kit mutant D816V (Homo sapiens (Human), UniProt P10721, D816V/DEL694-753)
Sequence (P10721 other isoform, or with tags, fused parts or gaps D816V/del 694-753): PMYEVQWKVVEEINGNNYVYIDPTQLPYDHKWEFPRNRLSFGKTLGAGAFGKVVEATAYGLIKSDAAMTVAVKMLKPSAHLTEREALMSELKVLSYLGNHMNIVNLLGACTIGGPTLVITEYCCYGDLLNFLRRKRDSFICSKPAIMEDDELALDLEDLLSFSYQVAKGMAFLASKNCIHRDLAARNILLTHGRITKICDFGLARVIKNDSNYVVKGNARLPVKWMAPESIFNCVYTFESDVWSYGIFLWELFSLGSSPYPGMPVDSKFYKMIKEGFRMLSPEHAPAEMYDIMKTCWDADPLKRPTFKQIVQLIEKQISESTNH
Assay: c-Kit mutant D816V biochemical assay (AlphaScreen)
Details: c-kit D816V biochemical inhibitory activity
Exercise: state measured IC50 for each of the compounds provided.

Query: Reported IC50, compound `Cc1n[nH]c(C(=O)Nc2cnc3[nH]c(-c4cccc(N5CCN(C(=O)C6CC6)CC5)c4)cc3c2)c1C` : ____
Reply: 0.0001 to 1 µM

Query: Reported IC50, compound `COC(=O)c1cccc(C(=O)Nc2cnc3[nH]c(-c4ccccc4)cc3c2)c1` : ____
Reply: 10 to 200 µM

Query: Reported IC50, compound `CCc1cc(C(=O)Nc2cnc3[nH]c(-c4ccc(F)cc4)cc3c2)[nH]n1` : ____
Reply: 0.0001 to 1 µM

Query: Reported IC50, compound `Cc1n[nH]c(C(=O)Nc2cnc3[nH]c(-c4ccnc(C(C)C)c4)cc3c2)c1C` : ____
Reply: 0.0001 to 1 µM

Query: Reported IC50, compound `Cc1n[nH]c(C(=O)Nc2cnc3[nH]c(-c4ccc(C#N)c(N5CCCC5)c4)cc3c2)c1C` : ____
Reply: 0.0001 to 1 µM

Query: Reported IC50, compound `Cc1n[nH]c(C(=O)Nc2cnc3[nH]c(C4=CCOCC4)cc3c2)c1C` : ____
Reply: 0.0001 to 1 µM

Query: Reported IC50, compound `Cc1cc(C(=O)Nc2cnc3[nH]c(C#CCF)cc3c2)[nH]n1` : ____
Reply: 1 to 10 µM

Query: Reported IC50, compound `Cc1n[nH]c(C(=O)Nc2cnc3[nH]c(-c4ccc(C(=O)NC5CC5)cc4)cc3c2)c1C` : ____
Reply: 0.0001 to 1 µM

---

Target: c-kit kinase (Homo sapiens (Human), UniProt P10721)
Sequence (P10721 26-976): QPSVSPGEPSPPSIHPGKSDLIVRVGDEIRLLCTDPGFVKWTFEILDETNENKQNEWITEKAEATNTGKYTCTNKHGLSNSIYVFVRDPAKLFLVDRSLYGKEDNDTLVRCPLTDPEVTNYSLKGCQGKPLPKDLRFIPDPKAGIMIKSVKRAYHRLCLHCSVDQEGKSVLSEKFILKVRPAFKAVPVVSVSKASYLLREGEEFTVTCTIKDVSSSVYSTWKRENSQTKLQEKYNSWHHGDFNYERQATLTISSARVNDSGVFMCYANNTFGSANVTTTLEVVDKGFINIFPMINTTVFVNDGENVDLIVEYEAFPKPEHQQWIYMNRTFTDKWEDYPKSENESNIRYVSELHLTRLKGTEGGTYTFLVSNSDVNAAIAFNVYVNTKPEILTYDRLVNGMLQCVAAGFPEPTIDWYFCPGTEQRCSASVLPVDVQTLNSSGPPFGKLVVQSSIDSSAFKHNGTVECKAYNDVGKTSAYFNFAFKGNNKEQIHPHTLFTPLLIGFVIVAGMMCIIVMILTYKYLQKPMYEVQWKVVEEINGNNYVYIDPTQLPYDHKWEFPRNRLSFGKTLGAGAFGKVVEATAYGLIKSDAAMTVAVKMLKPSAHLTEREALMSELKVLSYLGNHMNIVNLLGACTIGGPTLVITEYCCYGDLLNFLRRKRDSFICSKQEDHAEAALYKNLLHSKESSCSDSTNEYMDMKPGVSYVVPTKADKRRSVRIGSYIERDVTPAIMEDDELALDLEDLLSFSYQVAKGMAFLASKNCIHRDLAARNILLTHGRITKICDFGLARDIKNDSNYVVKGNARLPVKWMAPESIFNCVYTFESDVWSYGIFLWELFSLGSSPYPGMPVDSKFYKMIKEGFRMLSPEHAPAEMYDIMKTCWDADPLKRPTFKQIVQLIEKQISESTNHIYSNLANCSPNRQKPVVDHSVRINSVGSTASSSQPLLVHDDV
Assay: c-Kit biochemical assay (AlphaScreen)
Settings: c-kit biochemical inhibitory activity
endpoint_name: IC50

Query: Reported IC50, compound Cc1n[nH]c(C(=O)Nc2cnc3[nH]c(-c4ccccc4)cc3c2)c1C [P-2007] : ____
Reply: 0.0001 to 1 µM

Query: Reported IC50, compound Cc1cc(C(=O)Nc2cnc3[nH]c(-n4cccn4)cc3c2)[nH]n1 [P-2116] : ____
Reply: 10 to 200 µM

Query: Reported IC50, compound Cc1nn(C2CNC2)cc1-c1cc2cc(NC(=O)c3[nH]nc(C)c3C)cnc2[nH]1 [P-2286] : ____
Reply: 0.0001 to 1 µM

Query: Reported IC50, compound Cc1n[nH]c(C(=O)Nc2cnc3[nH]c(-c4cccc(N5CCN(C(=O)C6CC6)CC5)c4)cc3c2)c1C [P-2118] : ____
Reply: 10 to 200 µM

Query: Reported IC50, compound Cc1n[nH]c(C(=O)Nc2cnc3[nH]c(-c4cnn(C5CCNCC5)c4)cc3c2)c1C [P-2048] : ____
Reply: 0.0001 to 1 µM

Query: Reported IC50, compound Cc1n[nH]nc1C(=O)Nc1cnc2[nH]c(-c3ccc(F)cc3)cc2c1 [P-2037] : ____
Reply: 1 to 10 µM

Query: Reported IC50, compound Cc1n[nH]c(C(=O)Nc2cnc3[nH]c(-c4cccc5c4OC(F)(F)O5)cc3c2)c1C [P-2281] : ____
Reply: 10 to 200 µM

Query: Reported IC50, compound Cc1cc(C(=O)Nc2cnc3[nH]c(N4CCOCC4)cc3c2)[nH]n1 [P-2058] : ____
Reply: 10 to 200 µM

Query: Reported IC50, compound O=C(Nc1cnc2[nH]c(-c3ccccc3)cc2c1)c1cccc2n[nH]cc12 [P-2289] : ____
Reply: 0.0001 to 1 µM

Query: Reported IC50, compound Cc1n[nH]c(C(=O)Nc2cnc3[nH]c(-c4ccc(F)c(C)c4C)cc3c2)c1C [P-2279] : ____
Reply: 10 to 200 µM

Query: Reported IC50, compound CNC(=O)c1cccc(Nc2ncc(NC(=O)c3[nH]nc(C)c3C)cn2)c1 [P-2054] : ____
Reply: 1 to 10 µM

Query: Reported IC50, compound Cc1cc2cc(NC(=O)c3cccc4n[nH]cc34)cnc2[nH]1 [P-2301] : ____
Reply: 10 to 200 µM

Query: Reported IC50, compound Cc1n[nH]c(C(=O)Nc2cnc(Nc3cccc(NS(=O)(=O)c4ccccc4)c3)nc2)c1C [P-2053] : ____
Reply: 1 to 10 µM

Query: Reported IC50, compound Cc1cc(C(=O)Nc2cnc3[nH]c(C4=CCN(C(=O)C5CC5)CC4)cc3c2)n[nH]1 [P-2042] : ____
Reply: 0.0001 to 1 µM

Query: Reported IC50, compound Cc1n[nH]c(C(=O)Nc2cnc3[nH]c(C4=CCN(S(C)(=O)=O)CC4)cc3c2)c1Cl [P-2057] : ____
Reply: 0.0001 to 1 µM

Query: Reported IC50, compound Cc1[nH]nc(C(=O)Nc2cnc3[nH]c(-c4cccc(N5CCOCC5)c4)cc3c2)c1C [P-2070] : ____
Reply: 1 to 10 µM

Query: Reported IC50, compound Cc1n[nH]c(C(=O)Nc2cnc3[nH]nc(C)c3c2)c1C [P-2040] : ____
Reply: 10 to 200 µM

Query: Reported IC50, compound Cc1n[nH]c(C(=O)Nc2cnc3[nH]c(-c4ccnc(N5CCN(S(C)(=O)=O)CC5)c4)cc3c2)c1C [P-2186] : ____
Reply: 1 to 10 µM

Query: Reported IC50, compound CCOC(=O)Nc1cccc(Nc2ncc(NC(=O)c3[nH]nc(C)c3C)cn2)c1 [P-2055] : ____
Reply: 1 to 10 µM

Query: Reported IC50, compound Cc1n[nH]c(C(=O)Nc2cnc3[nH]c(-c4cncc(C#N)c4)cc3c2)c1C [P-2270] : ____
Reply: 10 to 200 µM

Query: Reported IC50, compound Cc1n[nH]c(C(=O)Nc2cnc3[nH]c(-c4cccc(N5CCNCC5)c4)cc3c2)c1C [P-2274] : ____
Reply: 0.0001 to 1 µM

Query: Reported IC50, compound Cc1n[nH]c(C(=O)Nc2cnc3[nH]c(-c4cccc(N5CCCC5)c4)cc3c2)c1C [P-2079] : ____
Reply: 1 to 10 µM

Query: Reported IC50, compound O=C(Nc1cnc2[nH]c(-c3ccccc3)cc2c1)c1[nH]ncc1Br [P-2005] : ____
Reply: 1 to 10 µM

Query: Reported IC50, compound Cc1cc(-c2cc3cc(NC(=O)c4[nH]nc(C)c4C)cnc3[nH]2)ccc1C(=O)O [P-2296] : ____
Reply: 0.0001 to 1 µM

Query: Reported IC50, compound Cc1nn(C2COC2)cc1-c1cc2cc(NC(=O)c3[nH]nc(C)c3C)cnc2[nH]1 [P-2168] : ____
Reply: 0.0001 to 1 µM

Query: Reported IC50, compound Cc1n[nH]c(C(=O)Nc2cnc3[nH]c(-c4cccnc4C(F)(F)F)cc3c2)c1C [P-2176] : ____
Reply: 10 to 200 µM

Query: Reported IC50, compound Cc1n[nH]c(C(=O)Nc2cnc3[nH]c(-c4ccc(F)cc4OC(F)F)cc3c2)c1C [P-2268] : ____
Reply: 1 to 10 µM

Query: Reported IC50, compound Cc1n[nH]c(C(=O)Nc2cnc3[nH]c(C4=CCC(N)CC4)cc3c2)c1C (centres unmarked) [P-2080] : ____
Reply: 1 to 10 µM

Query: Reported IC50, compound CC(=O)Nc1cccc(C(=O)Nc2cnc3[nH]c(-c4ccc(F)cc4)cc3c2)c1 [P-2026] : ____
Reply: 0.0001 to 1 µM

Query: Reported IC50, compound Cc1n[nH]c(C(=O)Nc2cnc3[nH]c(-c4cnccc4C(N)=O)cc3c2)c1C [P-2272] : ____
Reply: 10 to 200 µM

Query: Reported IC50, compound Cc1n[nH]c(C(=O)Nc2cnc3[nH]c(-c4ccc(C(=O)O)c(F)c4)cc3c2)c1C [P-2292] : ____
Reply: 0.0001 to 1 µM

Query: Reported IC50, compound Cc1n[nH]c(C(=O)Nc2cnc3[nH]c(-c4c(C)n[nH]c4C)cc3c2)c1C [P-2167] : ____
Reply: 0.0001 to 1 µM

Query: Reported IC50, compound Cc1n[nH]c(C(=O)Nc2cnc3[nH]ccc3c2)c1C [P-2032] : ____
Reply: 10 to 200 µM

Query: Reported IC50, compound Cc1[nH]nc(C(=O)Nc2cnc3[nH]c(-c4ccnc(N5CCN(C)CC5)c4)cc3c2)c1C [P-2069] : ____
Reply: 1 to 10 µM

Query: Reported IC50, compound O=C(O)c1cccc(C(=O)Nc2cnc3[nH]c(-c4ccccc4)cc3c2)c1 [P-2291] : ____
Reply: 10 to 200 µM
